TESTED_SYSTEM: UniProt Q9NRA0
Sequence (Q9NRA0 1-654): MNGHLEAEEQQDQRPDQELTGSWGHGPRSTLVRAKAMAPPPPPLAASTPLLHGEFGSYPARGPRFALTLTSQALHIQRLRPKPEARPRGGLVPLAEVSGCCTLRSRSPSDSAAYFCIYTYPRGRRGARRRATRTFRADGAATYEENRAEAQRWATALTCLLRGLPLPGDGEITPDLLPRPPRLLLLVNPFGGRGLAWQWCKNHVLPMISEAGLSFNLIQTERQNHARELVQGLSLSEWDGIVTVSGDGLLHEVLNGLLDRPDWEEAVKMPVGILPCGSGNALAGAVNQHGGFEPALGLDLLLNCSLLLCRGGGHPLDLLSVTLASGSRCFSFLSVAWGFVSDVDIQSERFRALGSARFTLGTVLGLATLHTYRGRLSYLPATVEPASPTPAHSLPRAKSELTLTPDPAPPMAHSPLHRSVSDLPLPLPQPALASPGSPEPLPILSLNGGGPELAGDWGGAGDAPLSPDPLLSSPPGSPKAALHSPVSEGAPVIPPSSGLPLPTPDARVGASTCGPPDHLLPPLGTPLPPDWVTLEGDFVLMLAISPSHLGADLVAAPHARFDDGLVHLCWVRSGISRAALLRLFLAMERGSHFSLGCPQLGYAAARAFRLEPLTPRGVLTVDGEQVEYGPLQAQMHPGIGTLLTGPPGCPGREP
ASSAY_PROTOCOL: Sphingosine kinase assay, recombinant human SPHK2 ([32P]S1P product, scintillation counting)
EXPERIMENTAL_CONTEXT: read-out: activity hSPHK2 (range estimate of KI)
Assignment: determine reported Ki for the given compounds.

Example compounds with recorded Ki:
{"columns": ["COMPOUND", "VALUE_REPORTED"],
 "data": [
  ["CCCCCCCn1ccc2c(-c3noc([C@@H]4CCCN4C(=N)N)n3)cccc21", "< 1000 nM"],
  ["N=C(N)N1CCC[C@H]1c1nc(-c2ccc3cc(OCc4ccc(Br)cc4)ccc3c2)no1 [Compound 53A]", "1000 to 10000 nM"],
  ["CCCCCCCCOc1ccc(-c2noc([C@@H]3CC(F)(F)CN3C(=N)N)n2)cc1C(F)(F)F [Compound 19A]", "> 10000 nM"]
]}

Proceeding to the next compound to report its Ki.
input: Which measured Ki belongs to "CCCCCCCCc1ccc(-c2noc([C@@H]3CCCN3C(=N)N)n2)cc1C(F)(F)F" , tested on UniProt Q9NRA0?
output: < 1000 nM
